Origin of values: ChEMBL document CHEMBL4002640

assay: Protein binding in rhesus monkey plasma; assay type: ADME, cell-free, Macaca mulatta; conditions: read-out: PPB (converted)
Readout Type: fraction unbound

chemical_structure=O[C@@H](c1cccnc1-c1cc(Cl)cc(Cl)c1)C(c1cccnc1)c1cccnc1 value_reported=0.08

====

molecular target: Potassium voltage-gated channel subfamily A member 5 (Homo sapiens, UniProt P22460); assay: Inhibition of Kv1.5 mediated ultra-rapid delayed rectifier current Ikur in human atrial myocytes by voltage-patch clamp electrophysiology method; format: cell-based
Sequence (P22460 whole entry): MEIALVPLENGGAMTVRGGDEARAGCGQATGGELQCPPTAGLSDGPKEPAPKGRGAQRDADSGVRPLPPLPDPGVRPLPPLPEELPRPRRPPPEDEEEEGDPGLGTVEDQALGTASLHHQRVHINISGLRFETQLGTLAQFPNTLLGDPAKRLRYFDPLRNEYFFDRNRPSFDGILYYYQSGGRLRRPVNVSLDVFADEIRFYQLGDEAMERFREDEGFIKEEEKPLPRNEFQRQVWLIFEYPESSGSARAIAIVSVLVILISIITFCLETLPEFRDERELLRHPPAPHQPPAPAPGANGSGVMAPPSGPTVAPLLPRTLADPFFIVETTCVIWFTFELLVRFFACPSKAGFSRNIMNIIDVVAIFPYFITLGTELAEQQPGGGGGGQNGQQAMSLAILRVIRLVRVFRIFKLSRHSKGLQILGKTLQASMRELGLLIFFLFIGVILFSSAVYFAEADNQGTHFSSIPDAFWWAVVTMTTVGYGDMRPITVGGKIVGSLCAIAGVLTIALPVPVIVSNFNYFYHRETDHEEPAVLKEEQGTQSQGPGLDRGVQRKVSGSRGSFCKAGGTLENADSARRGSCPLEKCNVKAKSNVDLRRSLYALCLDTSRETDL
pIC50: −log10 of the molar value.
This section presents compounds with their documented pIC50 values.
Readout Type: pIC50

chemical_structure=CS(=O)(=O)Nc1cccc([C@H](c2ccc(F)cc2)C(c2cccnc2)c2cccnc2)n1 readout_type=pIC50 value_reported=7.96
chemical_structure=O[C@@H](c1cccnc1-c1cc(Cl)cc(Cl)c1)C(c1cccnc1)c1cccnc1 readout_type=pIC50 value_reported=7.96

====

assay: Clearance in rat; type: ADME; conditions: in vivo
Readout Type: clearance (mL/min/kg)

chemical_structure=O[C@@H](c1cccnc1-c1cc(Cl)cc(Cl)c1)C(c1cccnc1)c1cccnc1 value_reported=16.7

====

assay: Protein binding in rat plasma; format: ADME, cell-free; conditions: read-out: PPB (converted)
Readout Type: fraction unbound

chemical_structure=O[C@@H](c1cccnc1-c1cc(Cl)cc(Cl)c1)C(c1cccnc1)c1cccnc1 value_reported=0.21

====

biological target: KCNQ1/KCNE1 (IKs) (Homo sapiens, UniProt P15382+P51787); test: Inhibition of human KCNQ1/KCNE1 expressed in HEK293 cells assessed as reduction in slowly activating delayed rectifier cardiac potassium current at 10 uM by patch clamp electrophysiology method; format: cell-based; conditions: HEK293 cells expressing human KCNQ1/KCNE1
Listed below: inhibition at 10 µM values for each entry.
Readout Type: inhibition at 10 µM

compound="Nc1cccc(C(c2cccnc2)C(O)c2cccnc2-c2cc(Cl)cc(Cl)c2)n1 (mixture of isomers)" value_reported=20%
compound=FC(F)(F)c1cccc(-c2ncccc2CC(c2cccnc2)c2cccnc2)c1 value_reported=23%
compound=O[C@@H](c1cccnc1-c1cccc(C(F)(F)F)c1)C(c1cccnc1)c1cccnc1 value_reported=-14%
compound=Clc1ccccc1-c1ncccc1CC(c1cccnc1)c1cccnc1 value_reported=24%
compound="Clc1ccccc1-c1ncccc1CC(c1cccnc1)c1cccnc1Cl (stereo not given)" value_reported=80%

====

biological target: Potassium voltage-gated channel subfamily A member 5 (Homo sapiens, UniProt P22460); test: Inhibition of Kv1.5 (unknown origin)
Catalogue of compounds with associated IC50
Readout Type: IC50 (nM)

compound=c1cncc(-c2ccccc2CC(c2cccnc2)c2cccnc2)c1 result_qualifier== value_reported=64
compound=c1cncc(C(Cc2ccccc2-c2ccncc2)c2cccnc2)c1 result_qualifier== value_reported=444
compound=CS(=O)(=O)Nc1cccc(-c2cc(F)ccc2CC(c2cccnc2)c2cccnc2)c1 result_qualifier== value_reported=579
compound=Fc1ccc(CC(c2cccnc2)c2cccnc2)c(C2CC2)c1 result_qualifier=> value_reported=10000
compound=CS(=O)(=O)Nc1cccc([C@H](c2ccc(F)cc2)C(c2cccnc2)c2cccnc2)n1 result_qualifier== value_reported=9
compound=N#Cc1cccc(-c2cccc(Cl)c2CC(c2cccnc2)c2cccnc2)c1 result_qualifier== value_reported=2860
compound=Fc1ccc(CC(c2cccnc2)c2cccnc2)c(-c2cccc(C(F)(F)F)c2)c1 result_qualifier== value_reported=1280
compound="Cc1cc(F)ccc1-c1ccccc1C(C#N)C(c1cccnc1)c1cccnc1 (centres undefined)" result_qualifier== value_reported=137
compound="CC(=O)NC(c1ccccc1-c1cc(Cl)cc(Cl)c1)C(c1cccnc1)c1cccnc1 (centres undefined)" result_qualifier== value_reported=148
compound=c1cncc(C(Cc2ccccc2-c2cncc3ccccc23)c2cccnc2)c1 result_qualifier== value_reported=133
compound=CN(C)C(=O)c1cccc(-c2ccccc2CC(c2cccnc2)c2cccnc2)c1 result_qualifier== value_reported=64
compound=O[C@@H](c1cccnc1-c1cccc(C(F)(F)F)c1)C(c1cccnc1)c1cccnc1 result_qualifier== value_reported=290
compound="OC(c1cccnc1-c1cccc(Cl)c1)C(c1cccnc1)c1cccnc1 (racemic)" result_qualifier== value_reported=283
compound=FC(F)(F)Oc1cccc(-c2ncccc2CC(c2cccnc2)c2cccnc2)c1 result_qualifier== value_reported=33
compound=Clc1ccccc1-c1ncccc1CC(c1cccnc1)c1cccnc1 result_qualifier== value_reported=23
compound=OC(Cc1cccnc1-c1cccc(C(F)(F)F)c1)(c1cccnc1F)c1cccnc1F result_qualifier== value_reported=195
compound=N#Cc1cccc(-c2cc(F)ccc2CC(c2cccnc2)c2cccnc2)c1 result_qualifier== value_reported=136
compound=FC(F)(F)c1cccc(-c2ncccc2CC(c2cccnc2)c2cccnc2)c1 result_qualifier== value_reported=84
compound=COc1cccc(-c2ncccc2CC(c2cccnc2)c2cccnc2)c1 result_qualifier== value_reported=41
compound=c1ccc(-c2ccccc2CC(c2cccnc2)c2cccnc2)cc1 result_qualifier== value_reported=1390
compound="CN(C)C(=O)c1cccc(-c2ncccc2CC(c2ccnc(N)n2)c2cccnc2F)c1 (racemic)" result_qualifier== value_reported=161
compound="OC(c1cccnc1-c1cccc(Cl)c1Cl)C(c1cccnc1)c1cccnc1 (racemic)" result_qualifier== value_reported=110
compound=Fc1ccc(CC(c2cccnc2)c2cccnc2)c(-c2cn[nH]c2)c1 result_qualifier=> value_reported=10000
